Source listed as patent EP4670784A1.

Target: T1, Recombinant human G-CSFR (Glu25-Pro621, 381-GR/CF, R&D Systems) (human, UniProt Q99062 25-621)
T1 construct: range 25-621; Bought protein, amine-coupled to a CM5 chip for SPR; also called rhG-CSFR; granulocyte-colony stimulating factor receptor
T1 sequence (looked up): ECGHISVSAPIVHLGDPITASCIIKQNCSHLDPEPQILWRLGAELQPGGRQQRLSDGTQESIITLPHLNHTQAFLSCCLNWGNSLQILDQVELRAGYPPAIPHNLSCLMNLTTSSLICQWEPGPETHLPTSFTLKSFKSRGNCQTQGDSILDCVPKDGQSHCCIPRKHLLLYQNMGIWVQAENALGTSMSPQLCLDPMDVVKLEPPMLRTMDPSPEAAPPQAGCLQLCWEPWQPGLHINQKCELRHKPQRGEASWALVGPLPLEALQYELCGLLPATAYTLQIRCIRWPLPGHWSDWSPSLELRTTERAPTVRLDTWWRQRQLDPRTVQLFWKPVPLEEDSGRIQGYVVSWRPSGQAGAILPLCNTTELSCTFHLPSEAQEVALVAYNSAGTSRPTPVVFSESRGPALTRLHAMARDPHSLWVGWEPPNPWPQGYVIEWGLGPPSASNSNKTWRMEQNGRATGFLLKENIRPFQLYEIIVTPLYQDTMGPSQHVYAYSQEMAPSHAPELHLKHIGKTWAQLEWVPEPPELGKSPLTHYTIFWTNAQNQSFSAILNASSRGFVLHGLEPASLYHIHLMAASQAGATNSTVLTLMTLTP
Assay: SPR, Biacore X100, multi-cycle kinetics, rhG-CSFR amine-coupled to CM5 chip, design as analyte, 1:1 model; series of Fig. 6 (from 20 nM)
observation.type: koff (s⁻¹)
The answer is to be given in s⁻¹; state only the numeric part.

Need koff of bv6 (designed binder, Expressed from pET28a downstream of an N-terminal His-tag and thrombin cleavage site; Minorly dimeric in solution; also called starting template) MAALAAALAEIYKGLAEYQARLKSLEGISPELGPALDALRYDMADFAILMAQAMEEGLDSLPQSFLRKALEMIRKIQADAAALREKLAATYKGNDRAAAAVEIAAQLEAFLEKAYQILRHLAAA , thanks.
0.0051

Let us now turn to bop1 (designed binder, De novo four-helix bundle, strictly monomeric in solution; Expressed from pET28a downstream of an N-terminal His-tag and thrombin cleavage site; also called bivalent-orientation parallel design 1) MAALDAALYEIYDGLILYQQRLKSLEGISPELGPALDALRYDMADFAILMAQAMEEGLDSLPQSFLRKALEMIRKIQADAAALREKLAATYKGNDRAAAAQSIARKLEEMLEKAYQILRHLAAA
0.0022

Let us now turn to boa1 (designed binder, Strictly monomeric in solution; Expressed from pET28a downstream of an N-terminal His-tag and thrombin cleavage site; also called bivalent-orientation antiparallel design 1) MAALAAALQSIYRKLAEMQAKLKSLEGISPELGPALDALRYDMADFAILMAQAMEEGLDSLPQSFLRKALEMIRKIQADAAALREKLAATYKGNDRADAAVYIAADLEILLEQAYQILRHLAAA
0.0024

Let us now turn to bop2 (designed binder, Strictly monomeric in solution; Expressed from pET28a downstream of an N-terminal His-tag and thrombin cleavage site; also called bivalent-orientation parallel design 2) MAALDAALYDIYDGLILYQQQLESLEGISPELGPALDALRYDMADFAILMAQAMEEGLDSLPQSFLRKALEMIRKIQADAAALREKLAATYKGNDRAAAAQSIARKLEEMLRKAYQDLRHLAAA
0.0013

Let us now turn to boa2 (designed binder, Strictly monomeric in solution; Expressed from pET28a downstream of an N-terminal His-tag and thrombin cleavage site; also called bivalent-orientation antiparallel design 2) MAALAAALQSIYRKLAEMQRKLKSLEGISPELGPALDALRYDMADFAILMAQAMEEGLDSLPQSFLRKALEMIRKIQADAAALREKLAATYKGNDRADAAVYDAADLEILLEQAYEILRHLAAA
0.0013
